Origin of values: PubChem BioAssay AID1996

Conditions: buffer; pH 7.4; 200.0 µM
Entry flag: Fulfilled if solubility kinetic reaches 30 µg/mL; Not fulfilled if it does not.

Take a look at these entries with their results.
                                   compound    label_class
0  CCOc1c(C)cnc2c1c(=O)n(Cc1ccccc1F)c(=O)n2C  Not fulfilled
1    CC1(C)CC(=O)C=C(Nc2cccc(C(F)(F)F)c2)C1  Not fulfilled
2  O=C(O)CCCc1c(-[n+]2ccccc2)[nH]c2ccccc12.[Cl-]      Fulfilled
3       NC(=O)c1cc(S(=O)(=O)NCCc2ccccc2)cs1      Fulfilled

Prompt: Could you please find out whether O=C(c1ccccc1)N1CCCCC(Cl)C1=O (stereo not drawn) has solubility kinetic that meets 30 µg/mL or exceeds it?
Response: Fulfilled

Prompt: Next: Cc1cc(C)n(CC(=O)NCc2ccccc2)c(=O)c1C#N
Response: Fulfilled

Prompt: And NC(=O)c1ccccc1NCC(=O)c1ccc(F)cc1 ?
Response: Fulfilled

###

Conditions: buffer; pH 7.4; 200.0 µM
Could you please report measured solubility kinetic for the items listed next?

Some compounds with known solubility kinetic results, for comparison:
>>> print(df.to_string())
                                   compound  endpoint_result
0  CCCC(CNC(=O)COC(=O)C1=NNC(=O)CC1)c1ccc(Cl)cc1Cl (stereo unspecified)   > 0.0621 mg/mL
1  O=C(OCc1cccc([N+](=O)[O-])c1)c1cc(=O)[nH]c2ccccc12   < 0.0003 mg/mL
2  COc1ccc(N(C(=O)C(C)C)S(=O)(=O)c2ccc3ccccc3c2)cc1   < 0.0008 mg/mL

For each of the compounds below, note its solubility kinetic.
1. CC(=O)Nc1ccc(NC(=O)c2cc[n+]([O-])cc2)cc1
2. CC1(NC(=O)Nc2ccccc2)CCS(=O)(=O)C1 (stereo unspecified)
3. CC(=O)c1cccc(NC(=O)c2sc(Cl)nc2C)c1
4. Oc1ccc(Br)cc1C1Nc2ccccc2S1 (stereo unspecified)

Response:
1. > 0.0407 mg/mL
2. > 0.0402 mg/mL
3. > 0.0442 mg/mL
4. < 0.0007 mg/mL

Provide each entry's solubility kinetic from the list below.
1. CCC1(CC)NC(=O)N(CC(=O)Nc2cccc3ccccc23)C1=O
2. OCc1nc2ccc(Cl)cc2[nH]1

Response:
> 0.0509 mg/mL
> 0.0274 mg/mL

Please give solubility kinetic for each item listed below.
1. C=CCNC(=S)N1CCN(S(=O)(=O)c2ccc(C)cc2)CC1
2. CCC(C(=O)Nc1ccc(C)cc1)c1ccccc1 (stereo unspecified)

Response:
1: > 0.0509 mg/mL; 2: < 0.0005 mg/mL

###

Conditions: buffer; pH 7.4; 200.0 µM
Classes based on solubility kinetic: class A = under 5 µg/mL, class B = from 5 µg/mL up to 40 µg/mL, class C = 40 µg/mL and over

>>> df
                                   compound  label_class
0           O=C(O)c1ccn(CSc2cc(Cl)ccc2Cl)n1      class C
1  Cc1cc2oc(C(=O)N3CCN(Cc4ccccc4)CC3)c(C)c2cc1C      class A

Prompt: Which of the defined bands does the recorded solubility kinetic of Cc1ccc(NC(CC(=O)c2ccccc2)C(=O)O)cc1Cl (centres undefined) sit within?
Response: class B

###

Conditions: buffer; pH 7.4; 200.0 µM
Lab note: compare solubility kinetic against 20 µg/mL. Equal or greater, write Y. Smaller, write N.

Answered examples (5):
>>> print(df.to_string())
                                   compound  label_class
0  COc1ccccc1N1CCN(C(=O)c2cccc(S(=O)(=O)Nc3ccccc3F)c2)CC1.Cl            Y
1  CCn1cc(C(=O)Nc2cccc(C)c2)c(=O)c2ccc(C)nc21            N
2  COc1cccc(NC(=O)CN2C(=O)NC(C)(CC(C)C)C2=O)c1 (configuration not stated)            Y
3  COC(=O)C(Cc1ccc(O)cc1)NC(=O)CCNC(=O)c1ccco1 (configuration not stated)            Y
4                  COCCn1c(C(C)C)nc2ccccc21            Y

Prompt: Textbook exercise: given the entry Cn1c(=O)c2c(ncn2CCC(=O)N/N=C/c2ccncc2)n(C)c1=O , state whether its solubility kinetic is greater than or equal to 20 µg/mL.
Response: Y

Prompt: Also COC(=O)c1ccc(CSCC(=O)Nc2ccccc2)cc1 ?
Response: Y

Prompt: Input Cc1[nH]c(=O)nc(SCc2cccc(Cl)c2)c1C#N
Response: N

###

Conditions: buffer; pH 7.4; 200.0 µM
Given measured solubility kinetic, output true (1) if it is greater than or equal to 20 µg/mL and false (0) if not.

                    structure_smiles_string  label_class
0  COc1ccc(NC(=S)NC(=NS(=O)(=O)c2ccc(Cl)cc2)c2ccccc2)cc1     true (1)
1   O=C(Cc1ccccc1)NCC(=O)OCC(=O)c1ccc(F)cc1     true (1)
2           S=C(NCCc1ccccc1)Nc1cnc2ccccc2c1    false (0)

Prompt: Form field: solubility kinetic at least 20 µg/mL? Entry: O=C(CSc1nc2ncccc2[nH]1)Nc1ccc2c(c1)OCO2
Response: true (1)

Prompt: For O=C(O)/C=C/c1ccc(S(=O)(=O)NCc2cccnc2)cc1 then?
Response: true (1)

Prompt: // query: CCc1c(C)sc(NC(=O)c2ccco2)c1C#N
Response: false (0)

Prompt: Item: O=C(/C=C/c1cccs1)NC1CCCC1
Response: true (1)

Prompt: Thanks! And CN1CCC(OC(=O)COc2ccc(F)cc2)CC1.Cl ?
Response: true (1)

Prompt: Try the molecule COc1ccc(Cl)cc1NC(=S)NCc1cccs1
Response: true (1)

Prompt: What do you have for O=c1oc2ccccc2n1Cc1cccc(Cl)c1 ?
Response: false (0)

Prompt: Proceed to CSc1nc(Nc2ccc(Cl)cc2)c(C#N)c(=O)[nH]1
Response: false (0)

###

For each entry below, report its solubility kinetic value.
Conditions: buffer; pH 7.4; 200.0 µM

Worked cases, solubility kinetic given:
                                   compound  endpoint_result
0  CN(C)C(=O)C(CCN1CCC(O)(c2ccc(Cl)cc2)CC1)(c1ccccc1)c1ccccc1.Cl       > 77 µg/mL
1             O=S(=O)(c1ccc(Cl)nc1)N1CCCCC1     > 39.1 µg/mL
2  CC1(c2ccc3ccccc3c2)NC(=O)N(CC(N)=O)C1=O (stereo unspecified)     > 44.6 µg/mL
3             O=C(CSc1nccn1-c1cccc(Cl)c1)NO     > 42.6 µg/mL
4   O=C(N/N=C/c1ccncc1)C12CC3CC(CC(C3)C1)C2     > 42.5 µg/mL

Provide solubility kinetic values for the following items, in order.
1. CC1=C/C(=N\OS(=O)(=O)c2ccccc2)C(C(C)C)=CC1=O
2. CC(=O)c1cc(C#N)c(SCc2ccc([N+](=O)[O-])cc2)nc1C
3. S=C(Nc1ccc2nccnc2c1)N1CCCC1
4. O=C(COC(=O)Cn1cnc2ccccc21)Nc1ccccc1C(F)(F)F
5. O=C(COc1ccc(S(=O)(=O)N2CCCCC2)cc1)N1CCCC1
6. CCOC(=O)CNC(=O)Cn1cnc2c(oc3ccccc32)c1=O

Response:
1: > 47.9 µg/mL; 2: < 0.2 µg/mL; 3: > 38.8 µg/mL; 4: > 56.6 µg/mL; 5: > 52.9 µg/mL; 6: > 49.4 µg/mL

###

Conditions: buffer; pH 7.4; 200.0 µM
Please go through the items and note down their solubility kinetic.
Numbers only, in µg/mL.

These recorded examples may help you get a feel for the data.
                                   compound  endpoint_result
0       O=C(COC(=O)c1ccc2ccccc2n1)NC1CCCCC1              8.5
1     CS(=O)(=O)N(CC(=O)N1CCCC1)c1cccc(F)c1             44.3
2  O=C(Nc1ccc(Cl)cc1)C(Cl)C(=O)c1ccccc1 (centres undefined)             11.8
3  CN(C)C=NC(=O)c1[nH]c2ccc(Cl)cc2c1-c1ccccc1             15.2
4      Cc1cc(C)c(S(=O)(=O)Nc2ncccc2C)c(C)c1              2.1

For every item in the list below, what is its measured solubility kinetic?
1. O=C(CCCN1C(=O)c2ccccc2C1=O)NCc1ccc(F)cc1
2. CC(=O)c1ccc(NC(=O)c2noc(C)c2[N+](=O)[O-])cc1

Response:
1: 47.8; 2: 18.6

Please state, for each entry, its recorded solubility kinetic.
1. O=C(Nc1ccc(Cl)cc1F)c1cccc2ccccc12
2. CCC(C)NC(=O)c1cc(-c2cccs2)nc2ccccc12 (centres undefined)
3. COc1cc2c(cc1OC)CN(CC(=O)NC(=O)NC(C)(C)C)CC2
4. Brc1ccc(-n2cnc(-c3ccccc3)c2)cc1
5. CC1(C)Cc2cccc(C(=O)Nc3ccc(F)cc3F)c2O1

Response:
1
2.4
45.9
1
0.7
